Documented Kd across a set of binders
# Target system: human CD3E&G complex (Sino Biological Inc., CT041-H0305H) (human) (UniProt P07766)
# Sequence (P07766 23-126, chain 1 of 2): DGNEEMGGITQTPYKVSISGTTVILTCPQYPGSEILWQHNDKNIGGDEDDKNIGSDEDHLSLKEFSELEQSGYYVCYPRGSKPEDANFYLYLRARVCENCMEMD
# Sequence (P09693 23-116, chain 2 of 2, further chain): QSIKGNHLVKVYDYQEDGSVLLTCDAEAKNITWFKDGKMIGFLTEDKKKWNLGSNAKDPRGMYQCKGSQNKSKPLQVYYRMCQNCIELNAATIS
# Assay name: SPR, antigen on chip

{"columns": ["Binder", "Kd"],
 "data": [
  ["SGN70-sp34.87HL (bispecific antibody, part only; not given: anti-CD70 Fab arm and Fc, not shown: another chain or arm of the molecule; a dimerising Fc or GST) scFv: EVQLVESGGGLVQPGGSLKLSCAASGFTFNTYAMNWVRQASGKGLEWVGRIRSKYNNYATYYADSVKDRFTISRDDSKSTLYLQMNSLKTEDTAVYYCARHYNFGQSYVSWFAYWGQGTTVTVSSGGGGSGGGGSGGGGSGGGGSQAVVTQEPSLTVSPGGTVTLTCRSSTGAVTTSNYANWVQQKPGQAPRGLIGGTNKRAPGVPARFSGSLLGDKAALTLLGAQPEDEAEYYCALWYSNLWVFGQGTKLTVL", "501 nM"],
  ["SGN70-sp34.97LH (bispecific antibody, part only; not given: anti-CD70 Fab arm and Fc, not shown: another chain or arm of the molecule; a dimerising Fc or GST) scFv: QAVVTQEPSLTVSPGGTVTLTCRSSTGAVTTSNYANWVQQKPGQAPRGLIGGTNKRAPGVPARFSGSLLGDKAALTLLGAQPEDEAEYYCALWYSNLWVFGQGTKLTVLGGGGSGGGGSGGGGSGGGGSEVQLVESGGGLVQPGGSLKLSCAASGFTFNTYAMNWVRQASGKGLEWVGRIRSKAGGYATYYADSVKDRFTISRDDSKSTLYLQMNSLKTEDTAVYYCARHGNFGQSYVSWFAYWGQGTTVTVSS", "3110 nM"],
  ["SGN70-sp34.24HL (bispecific antibody, part only; not given: anti-CD70 Fab arm and Fc, not shown: another chain or arm of the molecule; a dimerising Fc or GST; large carriers; small tags and cut ends) scFv: EVQLVESGGGLVQPGGSLKLSCAASGFTFNTYAMNWVRQASGKGLEWVGRIRSKYNNYATYYADSVKDRFTISRDDSKSTLYLQMNSLKTEDTAVYYCARHGNFGQSYVSWFAYWGQGTTVTVSSGGGGSGGGGSGGGGSGGGGSQAVVTQEPSLTVSPGGTVTLTCRSSTGAVTTSNYANWVQQKPGQAPRGLIGGTNKRAPGVPARFSGSLLGDKAALTLLGAQPEDEAEYYCALWYSNLWVFGQGTKLTVL", "110 nM"],
  ["SGN70-sp34.80LH (bispecific antibody, part only; not given: anti-CD70 Fab arm and Fc, not shown: another chain or arm of the molecule; a dimerising Fc or GST) scFv: QAVVTQEPSLTVSPGGTVTLTCRSSTGAVTTSNYANWVQQKPGQAPRGLIGGTNKRAPGVPARFSGSLLGDKAALTLLGAQPEDEAEYYCALWYSNLWVFGQGTKLTVLGGGGSGGGGSGGGGSGGGGSEVQLVESGGGLVQPGGSLKLSCAASGFTFNTAAMNWVRQASGKGLEWVGRIRSKYNNYATYYADSVKDRFTISRDDSKSTLYLQMNSLKTEDTAVYYCARHGNFGQSYVSWFAYWGQGTTVTVSS", "4060 nM"]
]}
